Parameter: pIC50. Scope: all listed entries.
# SUBJECT_OF_TEST: Angiotensin-converting enzyme (Rattus norvegicus, UniProt P47820)
# Sequence (P47820 whole entry): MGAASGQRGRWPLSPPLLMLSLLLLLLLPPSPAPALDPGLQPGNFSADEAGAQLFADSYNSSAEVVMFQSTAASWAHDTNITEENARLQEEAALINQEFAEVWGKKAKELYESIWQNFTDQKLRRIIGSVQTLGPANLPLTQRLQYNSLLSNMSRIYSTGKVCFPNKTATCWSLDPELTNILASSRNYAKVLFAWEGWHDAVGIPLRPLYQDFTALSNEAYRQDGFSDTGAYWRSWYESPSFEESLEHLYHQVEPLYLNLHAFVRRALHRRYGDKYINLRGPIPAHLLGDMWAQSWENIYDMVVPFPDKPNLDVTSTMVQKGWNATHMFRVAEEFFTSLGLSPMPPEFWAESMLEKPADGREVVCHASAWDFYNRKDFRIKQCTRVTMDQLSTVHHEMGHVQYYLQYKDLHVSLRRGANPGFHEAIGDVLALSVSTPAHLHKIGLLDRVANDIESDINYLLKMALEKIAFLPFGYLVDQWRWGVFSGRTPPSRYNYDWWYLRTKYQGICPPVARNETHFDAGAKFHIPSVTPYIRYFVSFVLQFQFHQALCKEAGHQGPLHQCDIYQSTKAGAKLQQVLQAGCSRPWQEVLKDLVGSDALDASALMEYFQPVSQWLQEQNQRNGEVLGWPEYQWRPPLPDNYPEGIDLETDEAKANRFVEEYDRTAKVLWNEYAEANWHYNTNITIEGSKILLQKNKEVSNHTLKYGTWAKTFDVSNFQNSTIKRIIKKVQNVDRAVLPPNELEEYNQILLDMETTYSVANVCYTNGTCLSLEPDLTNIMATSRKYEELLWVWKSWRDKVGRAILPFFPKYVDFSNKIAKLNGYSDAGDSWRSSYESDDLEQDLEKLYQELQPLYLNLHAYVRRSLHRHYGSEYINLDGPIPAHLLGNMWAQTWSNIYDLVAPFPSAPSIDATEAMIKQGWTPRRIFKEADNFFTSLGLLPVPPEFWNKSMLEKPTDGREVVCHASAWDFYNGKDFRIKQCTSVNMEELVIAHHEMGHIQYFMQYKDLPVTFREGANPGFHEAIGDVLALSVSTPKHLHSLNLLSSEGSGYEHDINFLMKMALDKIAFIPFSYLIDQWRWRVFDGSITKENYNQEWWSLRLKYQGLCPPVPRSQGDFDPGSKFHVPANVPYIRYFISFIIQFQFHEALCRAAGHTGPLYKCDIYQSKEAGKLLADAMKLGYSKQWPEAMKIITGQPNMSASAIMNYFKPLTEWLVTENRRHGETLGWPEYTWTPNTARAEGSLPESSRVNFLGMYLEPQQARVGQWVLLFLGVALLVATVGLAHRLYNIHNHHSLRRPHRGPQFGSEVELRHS
// pIC50 is dimensionless: -log10 of concentration (M)

Solved cases below.
C[C@H](NC(=O)[C@H](Cc1ccccc1)NC(=O)[C@@H](S)Cc1ccccc1)C(=O)O: 8.15
O=C(O)[C@H](Cc1c[nH]c2ccccc12)NC(=O)[C@H](Cc1ccccc1)NC(=O)[C@@H](S)Cc1ccccc1: 8.10
O=C(O)[C@H](Cc1ccc(O)cc1)NC(=O)[C@H](Cc1ccccc1)NC(=O)[C@@H](S)CCc1ccccc1: 8.82
C[C@H](NC(=O)[C@@H](S)Cc1ccccc1)C(=O)N1CCCC1: 6.82
O=C(O)[C@H](Cc1ccccc1)NC(=O)[C@@H](S)Cc1ccccc1: 7.36
CC[C@H](C)[C@H](NC(=O)[C@@H](S)C(C)C)C(=O)N1C(C(=O)O)CC2CCCCC21 (some centres not stated): 7.55

// pIC50 value for "CC[C@H](C)[C@H](S)C(=O)N[C@H](C(=O)N1CCC[C@H]1C(=O)O)C(C)C" : 9.24

// pIC50 value for "CC[C@@H](C)[C@H](NC(=O)[C@@H](S)C(C)C)C(=O)N[C@@H](Cc1ccc(O)cc1)C(=O)O" : 9.59

// pIC50 value for "CC[C@H](C)[C@H](S)C(=O)N[C@@H](Cc1ccccc1)C(=O)N[C@@H](Cc1ccc(O)cc1)C(=O)O" : 8.00
